Origin of values: ChEMBL document CHEMBL1201861

Test system: SNB-75;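 further: cell viability assay measuring growth inhibition of human SNB-75 cells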
Test: cells
Assay type: functional, cell-based
Conditions: Homo sapiens
Description: SANGER: Inhibition of human SNB75 cell growth in a cell viability assay.
ENDPOINT NAME: IC50

Which IC50 is listed for CCn1c(-c2nonc2N)nc2cnc(Oc3cccc(NC(=O)c4ccc(OCCN5CCOCC5)cc4)c3)cc21 [GSK-269962A] ?
> 2500 nM

Let us now turn to Cc1[nH]c(/C=C2\C(=O)Nc3ccc(S(=O)(=O)Cc4c(Cl)cccc4Cl)cc32)c(C)c1C(=O)N1CCC[C@@H]1CN1CCCC1
> 2000 nM

Let us now turn to CC[C@@]1(O)C(=O)OCc2c1cc1n(c2=O)Cc2cc3ccccc3nc2-1
17.3 nM

Let us now turn to Fc1cc(-c2cc[nH]/c(=N/c3ccc(-n4cnc(N5CCOCC5)n4)cc3)n2)cc(N2CCOCC2)c1
291 nM

Let us now turn to C/C(O)=C(\C#N)C(=O)Nc1cc(Br)ccc1Br
> 16000 nM

Let us now turn to O=c1cc(N2CCOCC2)oc2c(-c3cccc4c3sc3ccccc34)cccc12
> 2000 nM

Let us now turn to C[C@]12O[C@H](C[C@]1(O)CO)n1c3ccccc3c3c4c(c5c6ccccc6n2c5c31)CNC4=O
1490 nM

Let us now turn to O=c1[nH]c2ccccc2n1C1CCN(Cc2ccc(-c3nc4cc5[nH]cnc5cc4nc3-c3ccccc3)cc2)CC1
> 2560 nM
